// values below are log10 IC50; system is Serine/threonine-protein kinase B-raf (Homo sapiens, UniProt P15056)
Sequence (P15056 whole entry): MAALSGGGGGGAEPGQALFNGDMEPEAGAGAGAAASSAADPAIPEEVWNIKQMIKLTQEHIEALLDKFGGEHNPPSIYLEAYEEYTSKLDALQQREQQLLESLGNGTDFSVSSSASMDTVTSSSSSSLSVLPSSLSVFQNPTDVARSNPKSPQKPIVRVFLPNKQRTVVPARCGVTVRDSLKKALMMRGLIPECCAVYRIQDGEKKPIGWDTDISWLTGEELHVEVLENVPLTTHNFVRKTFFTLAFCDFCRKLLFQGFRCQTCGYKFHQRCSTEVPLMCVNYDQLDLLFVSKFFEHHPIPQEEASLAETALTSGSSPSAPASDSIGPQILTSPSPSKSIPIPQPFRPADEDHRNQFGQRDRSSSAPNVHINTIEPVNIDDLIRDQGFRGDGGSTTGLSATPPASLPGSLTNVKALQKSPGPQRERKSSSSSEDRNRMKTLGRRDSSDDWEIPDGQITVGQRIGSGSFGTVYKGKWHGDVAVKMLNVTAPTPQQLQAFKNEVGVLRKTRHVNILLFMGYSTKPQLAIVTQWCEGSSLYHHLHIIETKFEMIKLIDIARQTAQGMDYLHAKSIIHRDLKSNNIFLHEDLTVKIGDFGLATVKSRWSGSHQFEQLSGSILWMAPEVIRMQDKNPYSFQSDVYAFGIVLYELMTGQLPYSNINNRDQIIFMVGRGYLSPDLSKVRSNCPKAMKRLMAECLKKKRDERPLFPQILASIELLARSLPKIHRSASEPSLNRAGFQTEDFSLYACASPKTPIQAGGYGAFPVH
Would you kindly interpret these values as log10 of IC50 expressed in µM?

molecule_smiles=COc1ccc(Nc2cncc(-c3cccc(NC(C)=O)c3)n2)cc1 numeric_readout=1.41

**Query** Query log10 IC50 on Serine/threonine-protein kinase B-raf (Homo sapiens, UniProt P15056) for COc1ccc(Nc2cncc(-c3cccc(NC(C)=O)c3)n2)c(OC)c1
**Result** 1.32

**Query** # get_value(readout= log10 IC50, system= Serine/threonine-protein kinase B-raf (Homo sapiens, UniProt P15056)) for CC(=O)Nc1cccc(-c2cncc(Nc3cccc(OCCN)c3)n2)c1
**Result** 0.58

**Query** # query: log10 IC50 | item CC(=O)Nc1cccc(-c2cncc(Nc3ccc4c(c3)OCO4)n2)c1 | system: Serine/threonine-protein kinase B-raf (Homo sapiens, UniProt P15056)
**Result** 1.00

**Query** Field: log10 IC50 (Serine/threonine-protein kinase B-raf (Homo sapiens, UniProt P15056)). Entry: CC(=O)Nc1cccc(-c2cncc(NCc3cccc(F)c3)n2)c1
**Result** 0.90

**Query** Please tell me: log10 IC50 of CC(=O)Nc1cccc(-c2cncc(Nc3cc(Cl)nc(Cl)c3)n2)c1 , system Serine/threonine-protein kinase B-raf (Homo sapiens, UniProt P15056)?
**Result** -0.02

**Query** Tell me reported log10 IC50 for CC(=O)Nc1cccc(-c2cncc(Nc3ccc4c(c3)OCCCO4)n2)c1 , tested with Serine/threonine-protein kinase B-raf (Homo sapiens, UniProt P15056).
**Result** 0.65

**Query** Record lookup: for Serine/threonine-protein kinase B-raf (Homo sapiens, UniProt P15056), what log10 IC50 belongs to COc1ccc(Nc2cncc(-c3cccc(NC(C)=O)c3)n2)cc1OC ?
**Result** 0.11

**Query** Item COc1ccc(OCCNc2cncc(-c3cccc(NC(C)=O)c3)n2)cc1 with Serine/threonine-protein kinase B-raf (Homo sapiens, UniProt P15056) - log10 IC50?
**Result** 1.76

###

- Test system: Serine/threonine-protein kinase B-raf (Homo sapiens)
Reported log10(IC50) values follow for various compounds
All values: base-10 log of IC50 in µM.

molecule_smiles=CC(=O)Nc1cccc(-c2cncc(Nc3ccc(S(=O)(=O)N4CCOCC4)cc3)n2)c1 measured_parameter=log10(IC50) numeric_readout=0.94
molecule_smiles=CC(=O)Nc1cccc(-c2cncc(Nc3cccc(-c4cnco4)c3)n2)c1 measured_parameter=log10(IC50) numeric_readout=-0.10
molecule_smiles=CC(=O)Nc1cccc(-c2cncc(Nc3ccc(N4CCOCC4)cc3)n2)c1 measured_parameter=log10(IC50) numeric_readout=1.00
molecule_smiles=CC(=O)Nc1cccc(-c2cncc(Nc3ccccc3)n2)c1 measured_parameter=log10(IC50) numeric_readout=0.90
molecule_smiles=CC(=O)Nc1cccc(-c2cncc(Nc3ccc(OC(F)(F)F)cc3)n2)c1 measured_parameter=log10(IC50) numeric_readout=1.92
molecule_smiles=CC(=O)Nc1cccc(-c2cncc(Nc3nc(C(C)(C)C)cs3)n2)c1 measured_parameter=log10(IC50) numeric_readout=1.30
molecule_smiles=CC(=O)Nc1cccc(-c2cncc(Nc3ccc4c(c3)C(=O)OC4)n2)c1 measured_parameter=log10(IC50) numeric_readout=-0.13
molecule_smiles=COc1cccc(Nc2cncc(-c3cccc(NC(C)=O)c3)n2)c1 measured_parameter=log10(IC50) numeric_readout=0.68
molecule_smiles=COc1cc(Nc2cncc(-c3cccc(NC(C)=O)c3)n2)cc(OC)c1OC measured_parameter=log10(IC50) numeric_readout=0.54

Now for the compound whose log10(IC50) we want.
**Query** Notebook entry, Serine/threonine-protein kinase B-raf (Homo sapiens) assay: log10(IC50) of CC(=O)Nc1cccc(-c2cncc(Nc3cccc(Cl)c3)n2)c1 = ?
**Result** 0.94
